Target: M-phase inducer phosphatase 2 (Homo sapiens, UniProt P30305)
Sequence (P30305 whole entry): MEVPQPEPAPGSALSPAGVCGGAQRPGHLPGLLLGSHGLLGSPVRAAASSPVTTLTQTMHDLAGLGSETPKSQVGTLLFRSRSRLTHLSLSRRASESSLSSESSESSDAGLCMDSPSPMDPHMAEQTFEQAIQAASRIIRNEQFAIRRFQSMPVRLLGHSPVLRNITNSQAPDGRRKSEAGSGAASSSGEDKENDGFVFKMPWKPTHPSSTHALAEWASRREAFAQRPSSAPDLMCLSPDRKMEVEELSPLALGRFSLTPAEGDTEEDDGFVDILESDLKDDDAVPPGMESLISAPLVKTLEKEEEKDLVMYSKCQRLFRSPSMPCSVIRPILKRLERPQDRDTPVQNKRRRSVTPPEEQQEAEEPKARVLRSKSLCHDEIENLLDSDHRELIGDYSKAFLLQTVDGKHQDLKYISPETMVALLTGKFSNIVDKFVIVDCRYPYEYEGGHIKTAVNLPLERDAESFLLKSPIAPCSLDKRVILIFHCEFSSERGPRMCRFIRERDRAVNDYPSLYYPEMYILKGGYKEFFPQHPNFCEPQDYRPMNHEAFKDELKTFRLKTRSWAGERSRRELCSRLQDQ
Experiment: Inhibition of MBP-fused recombinant wild type CDC25B3 using fluorescein 3,6 diphosphate as substrate measured for 30 mins in presence of 1 mM dithiothreitol
IC50 listing for selected molecules.
Kindly provide the numeric value in µM only, without the unit symbol.

> print(dat)
                                   molecule                                    system  measurement.kind  data.value
1  O=C1N=C(NCCCCCNC2=NC(=O)/C(=C/c3ccc(O)cc3)S2)S/C1=C\c1ccc(O)cc1  M-phase inducer phosphatase 2 (Homo sapiens, UniProt P30305)              IC50        13.9
2  O=C1N=C(NCCCCCCCCNC2=NC(=O)/C(=C/c3ccc(O)cc3)S2)S/C1=C\c1ccc(O)cc1  M-phase inducer phosphatase 2 (Homo sapiens, UniProt P30305)              IC50         3.9
3  O=C1N=C(NCCCCCCCNC2=NC(=O)/C(=C/c3cc(Br)c(O)c(Br)c3)S2)S/C1=C\c1cc(Br)c(O)c(Br)c1  M-phase inducer phosphatase 2 (Homo sapiens, UniProt P30305)              IC50        1.38
4                    CC1=CC(=O)c2ccccc2C1=O  M-phase inducer phosphatase 2 (Homo sapiens, UniProt P30305)              IC50         2.2
5  O=C1N=C(NCCCCCCCNC2=NC(=O)/C(=C/C=C/c3ccccc3)S2)S/C1=C\C=C\c1ccccc1  M-phase inducer phosphatase 2 (Homo sapiens, UniProt P30305)              IC50         7.7
6  O=C1N=C(NCCCn2cc(CCNC3=NC(=O)/C(=C/c4ccc(O)cc4)S3)nn2)S/C1=C\c1ccc(O)cc1  M-phase inducer phosphatase 2 (Homo sapiens, UniProt P30305)              IC50        20.6
7  O=C1N=C(NCC2CCCC(CNC3=NC(=O)/C(=C/c4ccc(O)cc4)S3)C2)S/C1=C\c1ccc(O)cc1 (centres undefined)  M-phase inducer phosphatase 2 (Homo sapiens, UniProt P30305)              IC50         6.6
8  O=C1N=C(NCCCCCCCNC2=NC(=O)/C(=C/c3ccc4c(c3)OCO4)S2)S/C1=C\c1ccc2c(c1)OCO2  M-phase inducer phosphatase 2 (Homo sapiens, UniProt P30305)              IC50        13.8

# input for lookup
Reported IC50 for O=C1N=C(NCCN2CCN(CCNC3=NC(=O)/C(=C/c4ccc5c(c4)OCO5)S3)CC2)S/C1=C\c1ccc(O)cc1 : what is it?
4.4

====

Molecular target: M-phase inducer phosphatase 2 (Homo sapiens)
Sequence (P30305 whole entry): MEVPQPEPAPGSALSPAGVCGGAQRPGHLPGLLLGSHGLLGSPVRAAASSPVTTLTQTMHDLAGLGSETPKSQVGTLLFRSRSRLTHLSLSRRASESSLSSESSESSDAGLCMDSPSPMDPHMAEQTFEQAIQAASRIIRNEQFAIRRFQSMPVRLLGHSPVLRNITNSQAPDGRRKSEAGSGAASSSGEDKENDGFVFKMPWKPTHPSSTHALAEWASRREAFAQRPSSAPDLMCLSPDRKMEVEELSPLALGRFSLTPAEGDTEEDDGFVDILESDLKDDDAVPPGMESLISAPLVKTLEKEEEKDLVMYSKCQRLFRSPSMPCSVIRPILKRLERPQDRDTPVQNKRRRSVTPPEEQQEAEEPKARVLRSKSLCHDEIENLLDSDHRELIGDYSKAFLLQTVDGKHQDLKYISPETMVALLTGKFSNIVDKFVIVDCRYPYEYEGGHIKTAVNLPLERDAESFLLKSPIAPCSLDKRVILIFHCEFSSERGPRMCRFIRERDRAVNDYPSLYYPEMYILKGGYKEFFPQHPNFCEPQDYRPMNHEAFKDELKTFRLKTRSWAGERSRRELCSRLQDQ
Assay: Inhibition of MBP-fused recombinant wild type CDC25B3 using fluorescein 3,6 diphosphate as substrate measured for 30 mins in presence of 20 mM dithiothreitol
measurement.kind: IC50 (µM)
Kindly provide the numeric value in µM only, without the unit symbol.

Record O=C1N=C(NCCCCCCCNC2=NC(=O)/C(=C/c3cc(Br)c(O)c(Br)c3)S2)S/C1=C\c1cc(Br)c(O)c(Br)c1 : what is its IC50 with M-phase inducer phosphatase 2 (Homo sapiens)?
3.2

====

biological target: Tyrosine-protein phosphatase non-receptor type 1 (Homo sapiens); assay: Inhibition of PTP1B using fluorescein 3,6 diphosphate as substrate measured for 1 hr in presence of 1 mM dithiothreitol
Sequence (P18031 whole entry): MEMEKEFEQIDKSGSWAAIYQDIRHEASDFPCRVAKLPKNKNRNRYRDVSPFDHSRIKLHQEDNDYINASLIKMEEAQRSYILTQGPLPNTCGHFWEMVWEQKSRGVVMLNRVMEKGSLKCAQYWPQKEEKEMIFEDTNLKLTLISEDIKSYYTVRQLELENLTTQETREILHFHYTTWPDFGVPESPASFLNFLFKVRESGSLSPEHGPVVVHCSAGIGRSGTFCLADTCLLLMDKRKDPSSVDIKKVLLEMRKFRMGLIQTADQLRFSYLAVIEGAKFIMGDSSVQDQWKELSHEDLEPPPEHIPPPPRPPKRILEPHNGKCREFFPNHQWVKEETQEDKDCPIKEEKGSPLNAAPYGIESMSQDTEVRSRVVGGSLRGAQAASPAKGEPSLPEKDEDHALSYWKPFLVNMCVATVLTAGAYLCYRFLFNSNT
measurement.kind: pIC50
Lab note: report pIC50 as minus log10 of the concentration in molar units, number only.

> print(dat)
                                   compound  data.value
1  O=C1N=C(NCCCCCCCNC2=NC(=O)/C(=C/c3ccccc3)S2)S/C1=C\c1ccccc1        4.38
2  O=C1N=C(NCc2cccc(CNC3=NC(=O)/C(=C/c4ccc(O)cc4)S3)c2)S/C1=C\c1ccc(O)cc1        5.04
3  O=C1N=C(NCCCCNC2=NC(=O)/C(=C/c3ccc(O)cc3)S2)S/C1=C\c1ccc(O)cc1        4.55

Reported pIC50 for O=C1N=C(NCCCCCCCCNC2=NC(=O)/C(=C/c3ccc(O)cc3)S2)S/C1=C\c1ccc(O)cc1 : what is it?
4.94

Please answer likewise for O=C1N=C(NCCCCCNC2=NC(=O)/C(=C/c3ccc(O)cc3)S2)S/C1=C\c1ccc(O)cc1
4.69

Please answer likewise for O=C1N=C(NCC2CCCC(CNC3=NC(=O)/C(=C/c4ccc(O)cc4)S3)C2)S/C1=C\c1ccc(O)cc1 (stereo not drawn)
5.05

Please answer likewise for O=C1N=C(NCCCCCCCNC2=NC(=O)/C(=C/c3cc(Br)c(O)c(Br)c3)S2)S/C1=C\c1cc(Br)c(O)c(Br)c1
4.62

Please answer likewise for O=C1N=C(NCCCCCCNC2=NC(=O)/C(=C/c3ccc(O)cc3)S2)S/C1=C\c1ccc(O)cc1
4.91

====

target: Tyrosine-protein phosphatase non-receptor type 1 (Homo sapiens) (UniProt P18031); assay: Inhibition of PTP1B using fluorescein 3,6 diphosphate as substrate at 50 uM measured for 1 hr in presence of 1 mM dithiothreitol
Sequence (P18031 whole entry): as above
measurement.kind: inhibition (%)
Kindly provide the numeric value in % only, without the unit symbol.

> print(dat)
                               given.smiles  measurement.kind  data.value
1  O=C1N=C(NCCCc2cn(CCCNC3=NC(=O)/C(=C/c4ccc(O)cc4)S3)nn2)S/C1=C\c1ccc(O)cc1        inhibition          50

Reported inhibition for O=C1N=C(NCCCn2cc(CNC3=NC(=O)/C(=C/c4ccc(O)cc4)S3)nn2)S/C1=C\c1ccc(O)cc1 : what is it?
25

Please answer likewise for O=C1N=C(NCCCc2cn(CCNC3=NC(=O)/C(=C/c4ccc(O)cc4)S3)nn2)S/C1=C\c1ccc(O)cc1
35

Please answer likewise for O=C1N=C(NCCCn2cc(CCNC3=NC(=O)/C(=C/c4ccc(O)cc4)S3)nn2)S/C1=C\c1ccc(O)cc1
20

====

inhibition listing for selected compounds.
molecular target: UniProt P51452; experiment: Inhibition of VHR using fluorescein 3,6 diphosphate as substrate at 100 uM measured for 1 hr in presence of 1 mM dithiothreitol
Sequence (P51452 whole entry, looked up): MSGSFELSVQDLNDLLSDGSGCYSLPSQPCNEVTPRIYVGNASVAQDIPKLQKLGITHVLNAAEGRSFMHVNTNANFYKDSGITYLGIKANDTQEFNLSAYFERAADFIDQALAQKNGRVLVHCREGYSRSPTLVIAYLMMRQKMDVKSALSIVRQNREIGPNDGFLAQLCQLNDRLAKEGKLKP
Kindly provide the numeric value in % only, without the unit symbol.

For orientation, consider the following solved cases.
> print(dat)
                                   compound          system  measurement.kind  data.value
1  O=C1N=C(NCCN2CCN(CCNC3=NC(=O)/C(=C/c4ccc5c(c4)OCO5)S3)CC2)S/C1=C\c1ccc(O)cc1  UniProt P51452        inhibition          29
2  O=C1N=C(NCCCCCCCCNC2=NC(=O)/C(=C/c3ccc(O)cc3)S2)S/C1=C\c1ccc(O)cc1  UniProt P51452        inhibition          29
3  O=C1N=C(NCC2CCCC(CNC3=NC(=O)/C(=C/c4ccc(O)cc4)S3)C2)S/C1=C\c1ccc(O)cc1 (stereo not drawn)  UniProt P51452        inhibition          30
4     O=C1N=C(NCc2ccccc2)S/C1=C\c1ccc(O)cc1  UniProt P51452        inhibition           8

Reported inhibition for O=C1N=C(NCCCCCCCNC2=NC(=O)/C(=C/c3ccc4c(c3)OCO4)S2)S/C1=C\c1ccc2c(c1)OCO2 : what is it?
27

Please answer likewise for O=C1N=C(NCCCCCCCNC2=NC(=O)/C(=C/C=C/c3ccccc3)S2)S/C1=C\C=C\c1ccccc1
34

Please answer likewise for O=C1N=C(NCCCCCCCNC2=NC(=O)/C(=C/c3cc(Br)c(O)c(Br)c3)S2)S/C1=C\c1cc(Br)c(O)c(Br)c1
100

Please answer likewise for O=C1N=C(NCCCn2cc(CCNC3=NC(=O)/C(=C/c4ccc(O)cc4)S3)nn2)S/C1=C\c1ccc(O)cc1
55
